- Target Or Test System: HIV-1 protease (Human immunodeficiency virus type 1 group M subtype B)
- Assay Method Text: biochemical
- Condition Context: Table 12; HIV-1 protease; read-out: Ki
The entries below come with measured Ki values attached.

[
  {
    "Molecule": "CC(C)(CCC#N)CN(C[C@@H](O)[C@H](Cc1ccccc1)NC(=O)O[C@H]1CO[C@H]2OCC[C@H]21)S(=O)(=O)c1ccc2c(c1)OCO2",
    "Recorded Value": "< 1 nM"
  }
]

What Ki appears in the records for this molecule with HIV-1 protease (Human immunodeficiency virus type 1 group M subtype B)? CNc1cccc(S(=O)(=O)N(C[C@@H](O)[C@H](Cc2ccccc2)NC(=O)O[C@H]2CO[C@H]3OCC[C@H]32)CC(C)(C)CCCCN)c1
< 1 nM

What Ki appears in the records for this molecule with HIV-1 protease (Human immunodeficiency virus type 1 group M subtype B)? CC(C)(CCCNS(C)(=O)=O)CN(C[C@@H](O)[C@H](Cc1ccccc1)NC(=O)O[C@H]1CO[C@H]2OCC[C@H]21)S(=O)(=O)c1ccc2c(c1)OCCO2
< 1 nM

What Ki appears in the records for this molecule with HIV-1 protease (Human immunodeficiency virus type 1 group M subtype B)? COc1ccc(S(=O)(=O)N(C=C(C#N)C#N)C[C@@H](O)[C@H](Cc2ccccc2)NC(=O)OC(C)(C)C)cc1
10 to 100 nM

What Ki appears in the records for this molecule with HIV-1 protease (Human immunodeficiency virus type 1 group M subtype B)? CC(C)(CCC#N)CN(CC(O)C(Cc1ccccc1)NC(=O)OC1COC2OCCC12)S(=O)(=O)c1ccc(OCc2ccccc2)cc1 (stereo not drawn)
< 1 nM

What Ki appears in the records for this molecule with HIV-1 protease (Human immunodeficiency virus type 1 group M subtype B)? COc1ccc(S(=O)(=O)N(CC(O)[C@H](Cc2ccccc2)NC(=O)OC2COC3OCCC23)CC(C)(C)CCC(C)=NO)cc1 (stereo partly drawn)
< 1 nM

====

- System: HIV-1 (strain IIIB)
- Assay Method Text: microbe, parasite or virus in culture
- Assay type: cell-based
- Condition Context: Human immunodeficiency virus 1, IIIB, MT4, MT-4 cells; comparison compound; read-out: IC50 in the MT-4 cell based assay
Readout Type: IC50 (nM)
Numeric only. Scale: nM

For CC(C)CN(CC(O)C(Cc1ccccc1)NC(=O)OC1CCOC1)S(=O)(=O)c1ccc(N)cc1 (stereo not shown) [Compound A, reference compound] , what is its reported IC50?
80

====

- Target Or Test System: HIV-1 protease (Human immunodeficiency virus type 1 group M subtype B)
- Assay Method Text: biochemical
- Condition Context: Table 12; HIV-1 protease; read-out: Ki
pKi: −log10 of the molar value.
Readout Type: pKi

Solved cases (5 shown):
[
  {
    "Molecule": "CC(=O)Nc1cc(S(=O)(=O)N(C[C@@H](O)[C@H](Cc2ccccc2)NC(=O)O[C@H]2CO[C@H]3OCC[C@H]32)CC(C)(C)CCC#N)ccc1F",
    "Recorded Value": "> 9.00"
  },
  {
    "Molecule": "CNC(=O)OCCC(C)(C)CN(CC(O)[C@H](Cc1ccccc1)NC(=O)OC1COC2OCCC12)S(=O)(=O)c1ccc(OC)cc1 (stereo partly drawn)",
    "Recorded Value": "> 9.00"
  },
  {
    "Molecule": "CN(C)C(=O)NCCCCC(C)(C)CN(CC(O)C(Cc1ccccc1)NC(=O)OC1COC2OCCC12)S(=O)(=O)c1ccc2c(c1)OCO2 (stereo not drawn)",
    "Recorded Value": "> 9.00"
  },
  {
    "Molecule": "CC(C)(CCC#N)CN(CC(O)[C@H](Cc1ccccc1)NC(=O)OC1COC2OCCC12)S(=O)(=O)c1cccc(N)c1 (stereo partly drawn) [Compound 10]",
    "Recorded Value": "> 9.00"
  },
  {
    "Molecule": "CC(CCC=O)CCN(C[C@@H](O)[C@H](Cc1ccccc1)NC(=O)OC(C)(C)C)S(=O)(=O)c1ccc2c(c1)OCO2 (stereo partly drawn)",
    "Recorded Value": "8.00 to 9.00"
  }
]

We next turn to a different molecule, shown below.
For COc1ccc(S(=O)(=O)N(CC(C)CCC#N)CC(O)C(Cc2ccccc2)NC(=O)OC2CCOC2)cc1 (stereo not drawn) , what is its reported pKi?
> 9.00
